- System: generalized trembling caused by dl-5-hydroxytryptophane
- TEST_SUMMARY: Test A: potentiation in mice of generalized trembling caused by dl-5-hydroxytryptophane
- Assay type: in vivo
- PROTOCOL_CONDITIONS: Mus musculus, po, mice, potentiation of trembling by dl-5-hydroxytryptophane 200 mg/kg interperitoneal, read-out: Test A ED 50
Entry class follows ED50: range 1: < 3 mg/kg; range 2: ≥ 3 mg/kg and < 10 mg/kg; range 3: ≥ 10 mg/kg

Here's what some known entries look like.
1. O=C(COc1ccccc1)OCC1CN(c2ccc(OCc3cccc([N+](=O)[O-])c3)cc2)C(=O)O1 (stereo not shown): range 3
2. CC(C)OCC1CN(c2ccc(OCc3cccc(Cl)c3)cc2)C(=O)O1 (stereo not shown): range 3
3. NCC1CN(c2ccc(OCC3CCCC3)cc2)C(=O)O1 (stereo not shown): range 1

Quick check: band for CC(C)CCOc1ccc(N2CC(COC(=O)C(C)(C)C)OC2=O)cc1 (stereo not shown) range 2

Could you place COCC1CN(c2ccc(OCC=C(C)C)cc2)C(=O)O1 (stereo not shown) in its proper category? Many thanks. range 3

Which band does CC(C)C(=O)OCC1CN(c2ccc(OCc3cccc([N+](=O)[O-])c3)cc2)C(=O)O1 (stereo not shown) fall in? range 1

Which category fits this record: C=CCOCC1CN(c2ccc(OCc3cccc([N+](=O)[O-])c3)cc2)C(=O)O1 (stereo not shown) range 1

Field: class (ED50) — entry: COCC1CN(c2ccc(OCc3ccccc3)cc2)C(=O)O1 (stereo not shown) range 2

Hello team, could you let me know which band the following compound falls into: COCC1CN(c2cccc(C)c2)C(=O)O1 (stereo not shown) range 3

Bin? CCCCCCCCC(=O)OCC1CN(c2ccc(OCc3cccc(F)c3)cc2)C(=O)O1 (stereo not shown) range 3

* * *

- Tested on: generalized trembling caused by dl-5-hydroxytryptophane
- TEST_SUMMARY: Test A: potentiation in mice of generalized trembling caused by dl-5-hydroxytryptophane
- Type: in vivo
- PROTOCOL_CONDITIONS: Mus musculus, po, mice, potentiation of trembling by dl-5-hydroxytryptophane 200 mg/kg interperitoneal, read-out: Test A ED 50
Form field: ED50 (one value per entry).
Field format: number, assumed mg/kg, no unit text.

Name the recorded ED50 for COC[C@H]1CN(c2ccc(OCc3cccc(C#N)c3)cc2)C(=O)O1 . 0.31

* * *

- System: generalized trembling caused by dl-5-hydroxytryptophane
- TEST_SUMMARY: Test A: potentiation in mice of generalized trembling caused by dl-5-hydroxytryptophane
- Assay type: in vivo
- PROTOCOL_CONDITIONS: Mus musculus, po, mice, potentiation of trembling by dl-5-hydroxytryptophane 200 mg/kg interperitoneal, read-out: Test A ED 50
// classify: if (ED50 < 4 mg/kg) 1 else -1

These recorded examples may help you get a feel for the data.
1) COCC1CN(c2ccc(OCCCCCl)cc2)C(=O)O1 (centres unmarked) [compound 234]: 1
2) CCCCOc1ccc(N2CC(COCCC)OC2=O)cc1 (centres unmarked) [compound 142]: -1
3) CNCC1CN(c2ccc(OCc3ccc(F)cc3)cc2)C(=O)O1 (centres unmarked) [compound 175]: -1
4) N#Cc1cc(COc2ccc(N3CC(CO)OC3=S)cc2)ccc1F (centres unmarked) [compound 209]: -1
5) CC(C)OCC1CN(c2ccc(OCC3CCCC3)cc2)C(=O)O1 (centres unmarked) [compound 50]: -1
6) CCCCOc1ccc(N2CC(COC(=O)C(C)(C)C)OC2=O)cc1 (centres unmarked) [compound 12]: -1

Lab log: compare recorded ED50 with 4 mg/kg; is it strictly lower for COCC1CN(c2ccc(OCc3cccc(F)c3)cc2)C(=O)O1 (centres unmarked) [compound 67] ? -1

Is 4 mg/kg strictly greater than the compound's reported ED50? compound: O=C1OC(CN2CCOCC2)CN1c1ccc(OCc2cccc([N+](=O)[O-])c2)cc1 (centres unmarked) [compound 202] -1

Is ED50 of OCC1CN(c2ccc(OCc3ccc(F)cc3)cc2)C(=S)O1 (centres unmarked) [compound 96] strictly below 4 mg/kg? -1

Dear reviewer, please state whether O=[N+]([O-])c1cccc(COc2ccc(N3CC(CO)OC3=S)cc2)c1 (centres unmarked) [compound 94] has ED50 strictly beneath 4 mg/kg. 1

Confirm or reject: ED50 of CC(=O)OCC1CN(c2ccc(OCC3CCCCC3)cc2)C(=O)O1 (centres unmarked) [compound 21] lies strictly below 4 mg/kg 1

Consider CN(C)CC1CN(c2ccc(OCC3CCCC3)cc2)C(=O)O1 (centres unmarked) [compound 78] . Does its ED50 lie strictly below 4 mg/kg? -1

* * *

- Tested on: generalized trembling caused by dl-5-hydroxytryptophane
- TEST_SUMMARY: Test A: potentiation in mice of generalized trembling caused by dl-5-hydroxytryptophane
- Format: in vivo
- PROTOCOL_CONDITIONS: Mus musculus, po, mice, potentiation of trembling by dl-5-hydroxytryptophane 200 mg/kg interperitoneal, read-out: Test A ED 50
Reported values of ED50 for individual entries
Note: unit mg/kg is implicit; provide only the numeric part.

1. N#CCCCOc1ccc(N2CC(CO)OC2=S)cc1 (stereo not drawn): 4.3
2. CCCCC(=O)OCC1CN(c2ccc(OCc3cccc(F)c3)cc2)C(=O)O1 (stereo not drawn): 5.6
3. COCC1CN(c2ccc(OCc3ccc(Cl)c(Cl)c3)cc2)C(=O)O1 (stereo not drawn): 3.4
4. COCC1CN(c2ccc(OCc3cccc(C(F)(F)F)c3)cc2)C(=O)O1 (stereo not drawn): 4.7
5. CCC(=O)OCC1CN(c2ccc(OCC#N)cc2)C(=O)O1 (stereo not drawn): 12.5
6. COCC1CN(c2ccc(OCCC(C)C)cc2)C(=O)O1 (stereo not drawn): 0.28

Consider the compound shown here: COCC1CN(c2ccc(OCc3cc(Cl)cc([N+](=O)[O-])c3)cc2)C(=O)O1 (stereo not drawn) What is its recorded ED50? 0.47

Which ED50 is listed for CCCOCC1CN(c2ccc(OCc3cccc(Cl)c3)cc2)C(=O)O1 (stereo not drawn) ? 3.8

So what's the measured ED50 for this one? CNCC1CN(c2ccc(OCc3cccc([N+](=O)[O-])c3)cc2)C(=O)O1 (stereo not drawn) 3

* * *

- Tested on: generalized trembling caused by dl-5-hydroxytryptophane
- TEST_SUMMARY: Test A: potentiation in mice of generalized trembling caused by dl-5-hydroxytryptophane
- Type: in vivo
- PROTOCOL_CONDITIONS: Mus musculus, po, mice, potentiation of trembling by dl-5-hydroxytryptophane 200 mg/kg interperitoneal, read-out: Test A ED 50
Returns: string. Value is YES if measured ED50 is below 6 mg/kg, and NO if it is greater than or equal to it.

Check out these entries, answers already filled in.
1) COCC1CN(c2ccc(OCc3ccc(F)c([N+](=O)[O-])c3)cc2)C(=O)O1 (stereo not drawn) [compound 169]: YES
2) CCCOCC1CN(c2ccc(OCc3ccccc3)cc2)C(=O)O1 (stereo not drawn) [compound 152]: NO
3) O=C1CC(CO)CN1c1ccc(OCc2cccc([N+](=O)[O-])c2)cc1 (stereo not drawn) [compound 99]: NO
4) COCC1CN(c2ccc(/C=C/c3ccccc3)cc2)C(=O)O1 (stereo not drawn) [compound 187]: YES
5) COCC1CN(c2ccc(/C=C\c3cccc([N+](=O)[O-])c3)cc2)C(=O)O1 (stereo not drawn) [compound 194]: NO
6) CC(C)CCOc1ccc(N2CC(COC(=O)C3CCCCC3)OC2=O)cc1 (stereo not drawn) [compound 129]: NO
7) CCC(=O)OCC1CN(c2ccc(OCc3ccccc3)cc2)C(=O)O1 (stereo not drawn) [compound 24]: NO
8) CCCCC(=O)OCC1CN(c2ccc(OCc3cccc(Cl)c3)cc2)C(=O)O1 (stereo not drawn) [compound 33]: NO

Does this compound meet the criterion ED50 < 6 mg/kg? CNCC1CN(c2ccc(OCC3CCCC3)cc2)C(=O)O1 (stereo not drawn) [compound 77] YES

* * *

compounds and their reported log10 ED50
- Tested on: generalized trembling caused by dl-5-hydroxytryptophane
- TEST_SUMMARY: Test A: potentiation in mice of generalized trembling caused by dl-5-hydroxytryptophane
- Assay type: in vivo
- PROTOCOL_CONDITIONS: Mus musculus, po, mice, potentiation of trembling by dl-5-hydroxytryptophane 200 mg/kg interperitoneal, read-out: Test A ED 50
// do not treat as linear: log10 of ED50, unit mg/kg

1. COCC1CN(c2ccc(C#Cc3ccccc3)cc2)C(=O)O1 (centres unmarked): 0.41
2. O=C1OC(COC2CCCCC2)CN1c1ccc(OCc2cccc([N+](=O)[O-])c2)cc1 (centres unmarked): 0.97
3. CC(C)OCC1CN(c2ccc(OCCC#N)cc2)C(=O)O1 (centres unmarked): 0.70
4. COCC1CN(c2ccc(OCc3ccc(F)c(C#N)c3)cc2)C(=O)O1 (centres unmarked): -0.27

--- query ---
What measured log10 ED50 goes with CCCCCCCCC(=O)OCC1CN(c2ccc(OCc3cccc(Cl)c3)cc2)C(=O)O1 (centres unmarked) ? 1.28
